Origin of measurements: ChEMBL document CHEMBL1914382

assay: Permeability of the compound by PAMPA; type: ADME; settings: read-out: permeability

- Substance Smiles: "CC(=O)Nc1cn2cc(/C=C3\\SC(=O)NC3=O)ccc2n1"
  Papp: "136 nm/s"
